Experiment: Partition coefficient (logP)
Format: physicochemical
Settings: octanol/water; read-out: logP
measured_endpoint: logP

INSERT INTO measurements (molecule, meas_value) VALUES
  ('CCCCCCCCCCN1CCCC(C(=O)N(CC)CC)C1 (stereo not given)', 5.76),
  ('COc1cc(CNC(=O)C2CCCN(Cc3ccc(CN4CCCC(C(=O)NCc5cc(OC)c(OC)c(OC)c5)C4)cc3)C2)cc(OC)c1OC (stereo not given)', 4.06),
  ('CCN(CC)C(=O)C1CCCN(Cc2ccccc2)C1 (stereo not given)', 2.75),
  ('O=C(C1CCCN(Cc2ccc(CN3CCCC(C(=O)N4CCCC4)C3)cc2)C1)N1CCCC1 (stereo not given)', 2.75),
  ('CCCCCCCCCCN1CCCC(C(=S)N(CC)CC)C1 (stereo not given)', 6.53),
  ('O=C(O)C1CCCN(Cc2ccc(CN3CCCC(C(=O)O)C3)cc2)C1 (stereo not given)', 2.45),
  ('CCN(CC)C(=O)C1CCCN(CCCCCCCCN2CCCC(C(=O)N(CC)CC)C2)C1 (stereo not given)', 4.89),
  ('O=C(C1CCCN(Cc2ccc(CN3CCCC(C(=O)N4CCOCC4)C3)cc2)C1)N1CCOCC1 (stereo not given)', 0.74),
  ('CCN(CC)C(=O)C1CCCN(Cc2ccc(Cl)cc2)C1 (stereo not given)', 3.49),
  ('CCN(CC)C(=O)C1CCCN(CC2CCC(CN3CCCC(C(=O)N(CC)CC)C3)CC2)C1 (stereo not given)', 4.57);
